tested-on: hCA IX (Homo sapiens, UniProt Q16790)
observed-property: pKi
Give bare numbers, as −log10 of the molar value.

COc1cc(OC)c2c(c1Cl)OC1(C(=O)C=C(NCc3ccc(S(N)(=O)=O)cc3)CC1C)C2=O (stereo not drawn) [Compound 1c] : 6.99

Give one value of pKi per listed compound.
1. COc1cc(OC)c2c(c1Cl)O[C@]1(C2=O)C(=O)C(C(CC(=O)NCc2ccc(S(N)(=O)=O)cc2)c2ccc(SC)cc2)C(=O)C[C@H]1C (stereo partly drawn) [Compound 1h]
2. COc1cc(OC)c2c(c1Cl)OC1(C(=O)C=C(Nc3ccc(S(N)(=O)=O)cc3O)CC1C)C2=O (stereo not drawn) [Compound 1d]
3. COc1cc(OC)c2c(c1Cl)O[C@@]1(C(=O)/C(=C\NCc3ccc(S(N)(=O)=O)cc3)C(=O)C[C@H]1C)C2=O [Compound 1e]

1: 7.13; 2: 7.53; 3: 7.53

Give one value of pKi per listed compound.
1. COc1cc(OC)c2c(c1Cl)O[C@@]1(C(=O)C(=CNCCc3ccc(S(N)(=O)=O)cc3)C(=O)C[C@H]1C)C2=O [Compound 1f]
2. CC(=O)c1c(O)c(C)c(O)c2c1OC1=CC(=O)C(=C(C)Nc3ccc(S(N)(=O)=O)cc3O)C(=O)[C@@]12C [Compound 4a]
3. CC(=O)c1c(O)c(C)c(O)c2c1OC1=CC(=O)C(=C(C)Nc3cc(S(N)(=O)=O)ccc3O)C(=O)[C@@]12C [Compound 4b]
4. COc1cc(OC)c2c(c1Cl)O[C@]1(C2=O)C(=O)C(C(CC(=O)NCCc2ccc(S(N)(=O)=O)cc2)c2ccc(SC)cc2)C(=O)C[C@H]1C (stereo partly drawn) [Compound 1i]
5. COc1cc(OC)c2c(c1Cl)OC1(C(=O)C=C(Nc3ccc(S(N)(=O)=O)cc3)CC1C)C2=O (stereo not drawn) [Compound 1b]
6. COc1cc(C(CC(=O)NCCS(N)(=O)=O)C2C(=O)C[C@@H](C)[C@]3(Oc4c(Cl)c(OC)cc(OC)c4C3=O)C2=O)ccc1O (stereo partly drawn) [Compound 1g]
7. COc1cc(OC)c2c(c1Cl)OC1(C(=O)C=C(NCCS(N)(=O)=O)CC1C)C2=O (stereo not drawn) [Compound 1a]
8. COc1cc(OC)c2c(c1Cl)O[C@]1(C2=O)C(=O)C(C(CC(=O)NCC(=O)Nc2ccc(S(N)(=O)=O)cc2)c2ccc(SC)cc2)C(=O)C[C@H]1C (stereo partly drawn) [Compound 1j]

1. 7.51
2. 7.17
3. 6.52
4. 7.63
5. 6.69
6. 6.15
7. 7.51
8. 7.65
